Assay: NCI Yeast Anticancer Drug Screen. Data for the sgs1 mgt1 strain (AID 161);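 further: 0% = growth of cultures given vehicle only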
Conditions: S. cerevisiae sgs1 mgt1 strain, at 50.0 µM, stronger effect = higher value
About 79,000 compounds went through this panel and 15% of them were active in at least one assay; those are over-represented in the sample as a whole.
testReadout: growth inhibition (%)

smilesNotation	testReadout	numericReadout
CCN(CC)CC.CCOc1ccc(NC(=O)N=C=[N-])cc1.[CH-]1CCCCC1.[CH-]1CCCCC1.[CH-]1CCCCC1.[Cl-].[Sn+4]	growth inhibition	90.2
CCC[CH2][Sn]([CH2]CCC)([S]C#N)[S]C#N	growth inhibition	90.5
S=C=Nc1cccc(Cl)c1	growth inhibition	88.8

---

Experiment: NCI Yeast Anticancer Drug Screen. Data for the cln2 rad14 strain (AID 165);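 further: 0% = growth equal to vehicle treated cultures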
Settings: S. cerevisiae cln2 rad14 strain, at 5.0 µM (retest, dose inferred, filed as 0.5), stronger effect = higher value
This is part of a sample that, as a whole, favours compounds with a hit. Of some 79,000 tested, about 15% had one in any assay.

compound	growth inhibition / %
Brc1ccc(N2C[N+](c3ccc(Br)cc3)=NC(c3ccccc3)=N2)cc1	16
Cc1ccc(C(=O)CCl)o1	-54
CCOC(=O)C(/N=N\c1nn[nH]n1)/N=N/c1ncn[nH]1 (stereo unspecified)	-2
ClC1=C(Cl)C2(Cl)C(C3CO3)CC1(Cl)C2(Cl)Cl (stereo unspecified)	-12
OC1(c2ccccc2)CC2CCC(C1)N2CCCC(O)(c1ccccc1)c1ccccc1 (stereo unspecified)	1
CCC(C)N1CN(c2ccccc2)C2(CCN(CC3COc4ccccc4O3)CC2)C1=O (stereo unspecified)	11
CCCN(CCC)c1c([N+](=O)[O-])cc(S(N)(=O)=O)cc1[N+](=O)[O-]	2
CC[C@@]1(O)C[C@H](OC2CC(N)C(O)C(C)O2)c2c(O)c3c(c(O)c2[C@H]1C(=O)OC)C(=O)c1cccc(O)c1C3=O (stereo partly specified)	39
C[N+](C)(C)CC1CCCC(C[N+](C)(C)C)C1=O (stereo unspecified)	6
O=[n+]1c2ccccc2n([O-])c2ccccc21.[Cl][Ni][Cl]	33
CNC(=O)OCC1C2=C(C(=O)C(C)=C(N)C2=O)N2CC3C(N3C)C12OC (stereo unspecified)	10
CCC[CH2][Sn]([CH2]CCC)([S]C1=NCCS1)[S]C1=NCCS1	95
CCC[CH2][Sn]1([CH2]CCC)[O]CC(CN(C)Cc2ccccc2)[O]1 (stereo unspecified)	-2
CCC1(O)C(=O)OCc2c1cc(C)[nH]c2=O (stereo unspecified)	-62
O=C(O)/C=C\c1c[nH]c2ccccc12	-6
O=[N+]([O-])c1cc([N+](=O)[O-])c2cccnc2c1O	2

---

Assay: NCI Yeast Anticancer Drug Screen. Data for the cln2 rad14 strain (AID 165);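 further: 0% = growth equal to vehicle treated cultures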
Details: S. cerevisiae cln2 rad14 strain, at 50.0 µM, stronger effect = higher value
The panel holds about 79,000 compounds, 15% with a hit somewhere; the sample as a whole holds those more often.
Use label 1 when the recorded growth inhibition is no lower than 80%; use label 0 when it is lower.

molecule	assignedClass
CCCCC1C(=O)NC(=S)N(c2ccccc2)C1=O (configuration not stated)	label 0
C(=C/P(c1ccccc1)c1ccccc1)/P(c1ccccc1)c1ccccc1.C(=CP(c1ccccc1)c1ccccc1)P(c1ccccc1)c1ccccc1.[Pt]	label 1
CCCC[CH2][Sn]([CH2]CCCC)[CH2]CCCC.CCCC[CH2][Sn]([CH2]CCCC)[CH2]CCCC	label 1
CC(=O)Nc1ccc(/C=N/N=C(/N)N[N+](=O)[O-])cc1	label 1
CCOC(=O)N(C(=O)c1ccc([As]=O)cc1)C(=O)c1ccc([As]=O)cc1 (configuration not stated)	label 1
CC1([CH2][Hg][I])CS(=O)(=O)CC(C)([CH2][Hg][I])O1 (configuration not stated)	label 1
CC1=C(O)C(=O)C=C2C1=CC=C1[C@@]2(C)CCC2(C)[C@@H]3C[C@@H](C)C(=O)C[C@]3(C)CC[C@]12C (some centres not stated)	label 1
O=[N+]([O-])c1cc([N+](=O)[O-])c2cccnc2c1O	label 1
C[N+](CCCl)(CCCl)Cc1cccc2cccc([N+](=O)[O-])c12	label 0
COC1C(O)C(C)OC(OC2C(Oc3cccc4c(O)c5c(=O)oc6ccc(C)c7c(=O)oc(c34)c5c67)OC(C)C(O)C2O)C1O (configuration not stated)	label 0

---

Experiment: NCI Yeast Anticancer Drug Screen. Data for the mec2-1 strain (AID 157)
Conditions: S. cerevisiae mec2-1 strain, at 1.2 µM, stronger effect = higher value
The panel holds about 79,000 compounds, 15% with a hit somewhere; the sample as a whole holds those more often.

molecule	unitOfMeasure	growth inhibition
O=C1NC(=S)NC(=O)C1=Cc1ccc([N+](=O)[O-])o1	%	-16
COC(=O)C1C2c3ccccc3C(c3ccccc32)C1C(=O)OC (stereo not given)	%	-2
CCOC(=O)C1([Se]c2ccccc2)CCCC1=O (stereo not given)	%	1
COc1ccc(/C=C(/C)[N+](=O)[O-])cc1	%	-44
CNC(=O)OCC1C2=C(C(=O)C(C)=C(N)C2=O)N2CC3C(N3C)C12OC (stereo not given)	%	-14
CC1(Cl)CC(C)(/C=C/Cl)C(Cl)CC1Cl (stereo not given)	%	5
COC1CC(CC2CCC(C)C(C(C)C(=O)O)O2)OC2(OC(C)(C3CCC(C)(C4OC(C5OC(O)(CO)C(C)CC5C)CC4C)O3)CC2C)C1C (stereo not given)	%	-2
CCCCN(CCCC)CC(C(C)=O)C(c1ccccc1)c1c(O)c2ccccc2oc1=O (stereo not given)	%	3
O=C1c2ccccc2C(=O)C(Cl)C1Cl (stereo not given)	%	9
NCCc1ccc(OCc2ccccc2)c(OCc2ccccc2)c1	%	0
Nc1ccc(Cl)cc1C(=O)c1ccccc1	%	-38
CC[C@]1(O)CC(OC2CC(N(C)C)C(O)C(C)O2)c2c(cc3c(c2O)C(=O)c2c(O)cccc2C3=O)[C@@H]1C(=O)OC (stereo not given in full)	%	-16
O=c1oc2ccccc2c(O)c1C(c1ccc2ccccc2c1)c1c(O)c2ccccc2oc1=O	%	10
Cc1ccc(P(c2ccc(C)cc2)c2ccc(C)cc2)cc1	%	-3
c1ccc(N=c2nc(N3CCOCC3)ss2)cc1	%	-4

---

Assay: NCI Yeast Anticancer Drug Screen. Data for the wt1 strain (AID 149);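 further: 0% = growth of vehicle-treated wt1 cultures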
Conditions: S. cerevisiae wt1 strain (SPY 50644) growth inhibition; at 100.0 µM
Description: Growth inhibition of yeast strains with defined genetic alterations is measured as a screen for potential anti-cancer activity. Selected strains with alterations in DNA damage repair or cell cycle control were exposed to compounds and growth inhibition was measured relative to vehicle treated controls. The strain used in this assay is wt1
About 79,000 compounds went through this panel and 15% of them were active in at least one assay; those are over-represented in the sample as a whole. Activity calls are given as the source filed them. Cut-off read from the data, not from the text of the source: active = growth inhibition above about 70%; inactive = the rest.
Outcomes: TRUE = active, FALSE = inactive

molecule	assignedClass
C[C@]12CC[C@H](O)CC1=CC[C@@H]1[C@@H]2CC[C@]2(C)C(=O)CC[C@@H]12	TRUE
CC1CN1C1=C(Cl)C(=O)C(N2CC2C)=C(Cl)C1=O (stereo not drawn)	TRUE
O=c1oc2ccccc2c(O)c1C(c1ccc2c(c1)Cc1ccccc1-2)c1c(O)c2ccccc2oc1=O	TRUE
Oc1ccc(Cl)cc1Cc1ccccc1	TRUE
Cc1c2ccccc2cc2ccccc12	TRUE
c1ccc(N=c2nc(N3CCOCC3)ss2)cc1	TRUE
S=C1NC2(CCCCC2)NC12CCCCC2	FALSE
[O-][n+]1c2cccc(O)c2[n+]([O-])c2cccc(O)c21	FALSE

---

Assay: NCI Yeast Anticancer Drug Screen. Data for the mec2-1 strain (AID 157)
Details: S. cerevisiae mec2-1 strain, at 50.0 µM (retest, dose inferred, filed as 5.0), stronger effect = higher value
About 79,000 compounds went through this panel and 15% of them were active in at least one assay; those are over-represented in the sample as a whole.

compound	unitOfMeasure	growth inhibition
Cc1ccc(C(Cc2ccc(N3C(N)=NC(N)=NC3(C)C)cc2)C(=O)Nc2ccc(S(=O)(=O)F)cc2)cc1 (stereo not given)	%	99
C=CCC[CH2][Sn]([c]1ccccc1)([c]1ccccc1)[c]1ccccc1	%	98
O=C(O)C1(c2ccccc2)OC1c1ccccc1 (stereo not given)	%	82
ClC1=NSSC1(Cl)Cl	%	99
COc1cc(C=Nc2cc[c]([Hg][O]C(C)=O)cc2)ccc1O	%	67
O=C1C2CC(Cl)C(SSC3CC4C(=O)N(SC(Cl)(Cl)C(Cl)Cl)C(=O)C4CC3Cl)CC2C(=O)N1SC(Cl)(Cl)C(Cl)Cl (stereo not given)	%	98
CC[C@H](C)c1occ2c(O)c(C(=O)O)c(=O)cc-2c1C	%	99
Cl[C](Cl)(Cl)[Hg][c]1ccccc1	%	99
Ic1cccc2c1[se]c1ccccc12	%	20
C/C(=N\NC(N)=O)C(CN1CCOCC1)C(c1ccccc1)c1c(O)c2ccccc2oc1=O (stereo not given)	%	13
C[CH2][Sn]([Cl])([CH2]C)[O][Sn]([Cl])([CH2]C)[CH2]C	%	89
O=C(CCN1CC1)NCCc1ccccc1	%	48
CC12CCC(O)CC1CCC1C2CCC2(C)C(C(=O)CC(O)C(F)(F)F)CCC12 (stereo not given)	%	43
c1ccc(C(C(=Nc2ccc(Cc3ccc(N=C(C(c4ccccc4)c4ccccc4)N4CC4)cc3)cc2)N2CC2)c2ccccc2)cc1	%	59
CN1CCN(c2ccc([N+](=O)[O-])c3no[n+]([O-])c23)CC1	%	99
